Origin of measurements: paper PMC10650850

Target: AF9-DOT1L interaction (Homo sapiens)
Construct: human AF9 AHD domain (475–568); made in house; host or cells: E. coli BL21(DE3)
Sequence (P42568 475-568): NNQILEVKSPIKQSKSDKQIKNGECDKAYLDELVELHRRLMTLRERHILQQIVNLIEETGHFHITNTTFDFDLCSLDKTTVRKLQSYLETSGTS
Test: AlphaLisa assay, AF9-DOT1L interaction
Format: binding
Conditions: compound at 5 μM, read-out: % Inhibition at 5 μM against the AF9-DOT1L interaction
OBSERVABLE: inhibition at 5 µM (%)

COMPOUND: O=C(NCC1CCNCC1)c1cc2ccc(-c3ccc(CN4CCCCC4)cc3)cc2s1 [Compound 28]
RECORDED NUMBER: 45

a: O=C(NCC1CCNCC1)c1cc2ccc(-c3ccc(C(=O)N4CCCC4)cc3)cc2s1 [Compound 30]
b: O=C(NCC1CCNCC1)c1c[nH]c2cc(-c3ccc(N4CCOCC4)cc3)ccc12 [Compound 13]
c: O=C(NCC1CCNCC1)c1c[nH]c2ccc(-c3ccc(N4CCCCC4)cc3)cc12 [Compound 23]
d: O=C(NCC1CCNCC1)c1cc2ccc(Oc3ccc(Oc4ccc(Cl)cc4)cc3)cc2o1 [Compound 77]
Query block: Put the entries in order of inhibition at 5 µM, starting with the largest number. Provide the ranking by listing each label in its place in the requested order.
Result block: c, b, d, a
(c: 43%, b: 29%, d: 20%, a: 0%)

* * *

Target: ENL-AF4 (Homo sapiens)
Construct: ENL AHD domain (489–559); made in house; host or cells: E. coli BL21(DE3)
Sequence (Q03111 489-559): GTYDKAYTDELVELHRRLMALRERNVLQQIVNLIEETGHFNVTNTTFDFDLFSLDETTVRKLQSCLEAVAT
Experiment: AlphaLisa assay, ENL-AF4 interaction
Format: binding
Conditions: ENL AHD, AF4 peptide
OBSERVABLE: IC50 (µM)

Worked examples, 2 compounds total:
COMPOUND: Cl.O=C(NCC1CCNCC1)c1cc2ccc(-c3ccc(N4CCCCC4)cc3)cc2s1 [Compound 24]
OBSERVABLE: IC50
UNIT DESCRIPTOR: µM
RECORDED NUMBER: 2.6
//
COMPOUND: Cl.O=C(NCC1CCNCC1)c1cc2cc(-c3ccc(N4CCCCC4)cc3)ccc2s1 [Compound 50]
OBSERVABLE: IC50
UNIT DESCRIPTOR: µM
RECORDED NUMBER: 3.4

a: O=C(NCC1CCNCC1)c1cc2ccc(-c3ccc(N4CCCC4)cc3)cc2s1 [Compound 25]
b: O=C(NCC1CCNCC1)c1cc2cc(-c3ccc(N4CCCC4)cc3)ccc2[nH]1 [Compound 16]
Query block: For the pair a and b , which entry has the numerically smaller recorded IC50? // caller expects the label of the chosen entry
Result block: b

* * *

Target: AF9-DOT1L interaction (Homo sapiens)
Construct: human AF9 AHD domain (475–568); made in house; host or cells: E. coli BL21(DE3)
Test: AlphaLisa assay, AF9-DOT1L interaction
Type: binding
Settings: compound at 5 μM, read-out: % Inhibition at 5 μM against the AF9-DOT1L interaction
OBSERVABLE: inhibition at 5 µM (%)

Worked examples, 10 compounds total:
QUERY SMILES: CCN(CC)c1ccc(-c2ccc3cc(C(=O)NCC4CCNCC4)oc3c2)cc1
UNIT DESCRIPTOR: %
inhibition at 5 µM: 30

QUERY SMILES: O=C(NCC1CCNCC1)c1cc2ccc(-c3ccc(C(=O)N4CCCCCC4)cc3)cc2o1
UNIT DESCRIPTOR: %
inhibition at 5 µM: 0

QUERY SMILES: CS(=O)(=O)c1ccc(-c2ccc3cc(C(=O)NCC4CCNCC4)sc3c2)cc1
UNIT DESCRIPTOR: %
inhibition at 5 µM: 49

QUERY SMILES: N#Cc1ccc(-c2ccc3sc(C(=O)NCC4CCNCC4)cc3c2)cc1
UNIT DESCRIPTOR: %
inhibition at 5 µM: 23

QUERY SMILES: Cc1cc(C#N)ccc1-c1ccc2[nH]c(C(=O)NCC3CCNCC3)cc2c1
UNIT DESCRIPTOR: %
inhibition at 5 µM: 0

QUERY SMILES: O=C(NCC1CCNCC1)c1cc2cc(-c3ccc(N4CCOCC4)cc3)ccc2[nH]1
UNIT DESCRIPTOR: %
inhibition at 5 µM: 52

QUERY SMILES: NCc1ccc(-c2ccc3c(C(=O)NCC4CCNCC4)c[nH]c3c2)cc1
UNIT DESCRIPTOR: %
inhibition at 5 µM: 11

QUERY SMILES: O=C(NCC1CCNCC1)c1cc2ccc(-c3ccc(OC(F)(F)F)cc3)cc2s1
UNIT DESCRIPTOR: %
inhibition at 5 µM: 14

QUERY SMILES: O=C(NCC1CCNCC1)c1cc2ccc(N3CCC(N4CCCC4)CC3)cc2s1
UNIT DESCRIPTOR: %
inhibition at 5 µM: 20

QUERY SMILES: O=C(NCC1CCNCC1)c1cc2cc(-c3ccc(C(=O)N4CCCC4)cc3)ccc2s1
UNIT DESCRIPTOR: %
inhibition at 5 µM: 0

1: COc1ccc(Oc2ccc3cc(C(=O)NCC4CCNCC4)oc3c2)cc1
2: Cl.O=C(NCC1CCNCC1)c1cc2ccc(-c3ccc(C(=O)N4CCC(N5CCCCC5)CC4)cc3)cc2s1
Query block: Which numeric inhibition at 5 µM is bigger, that of 1 or that of 2 ? // caller expects the label of the chosen entry
Result block: 1
(1: 24%, 2: 0%)
